This listing pairs molecules with measured pIC50.
study.system: recombinant IRAK-4 kinase (Homo sapiens, UniProt Q9NWZ3)
Sequence (Q9NWZ3 whole entry): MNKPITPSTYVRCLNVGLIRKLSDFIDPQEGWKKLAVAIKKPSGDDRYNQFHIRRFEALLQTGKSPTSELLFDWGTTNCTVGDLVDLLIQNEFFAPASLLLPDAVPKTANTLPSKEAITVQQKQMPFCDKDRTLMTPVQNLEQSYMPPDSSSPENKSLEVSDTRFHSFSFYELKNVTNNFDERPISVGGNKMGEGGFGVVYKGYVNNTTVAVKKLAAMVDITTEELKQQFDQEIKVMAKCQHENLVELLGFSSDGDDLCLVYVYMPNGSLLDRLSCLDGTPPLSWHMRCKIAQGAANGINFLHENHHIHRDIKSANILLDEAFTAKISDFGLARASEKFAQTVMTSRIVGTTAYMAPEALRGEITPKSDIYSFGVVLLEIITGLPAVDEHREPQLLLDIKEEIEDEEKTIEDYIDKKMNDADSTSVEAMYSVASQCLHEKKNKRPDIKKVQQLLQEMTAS
assay.summary: IRAK-4 Biochemical Assay (TR-FRET)
condition.parameters: 30 min pre-incubation, 100 nM Biotin Histone H3, 20 μM ATP, read-out: IC50 values for IRAK4 activity
pIC50: −log10 of the molar value. Counter-ions that a name gives are not always drawn.

Consider the worked cases shown below.
Cc1cc(-c2nc(C(=O)Nc3cc4cn(C5CCCC5)nc4cc3N3CCCCC3)co2)ccn1 [Example 4]; > 7.30
Cn1cc2cc(NC(=O)c3coc(-c4ccnc(N)c4)n3)c(N3CCCCC3)cc2n1 [Example 86, hydrochloride]; > 7.30
Cc1cc(-c2nc(C(=O)Nc3cc4cn(C)nc4cc3N3CCCC(CO)C3)co2)ccn1 (centres unmarked) [Example 82]; > 7.30
Cc1cc(-c2ccc(C(=O)Nc3cc4cn(C)nc4cc3N3CCC(O)CC3)o2)ccn1 [Example 67]; > 7.30
Cc1nn(C)c2cc(N3CCC(CO)CC3)c(NC(=O)c3coc(-c4ccnc(N)c4)n3)cc12 [Example 112]; > 7.30

Q: Returns the measured pIC50 for the input molecule. Input: Cc1ccc(-c2nc(C(=O)Nc3cc4cn(C)nc4cc3N3CCCCC3)co2)cn1 [Example 25]
Ans: > 7.30

Q: Now consider Cn1cc2cc(NC(=O)c3cccc(-c4cn[nH]c4)n3)c(C3CCCCC3)cc2n1 [Example 13, hydrochloride] .
Ans: > 7.30

Q: Now consider Cn1cc2cc(NC(=O)c3cccc(N4CC[C@H](N)C4)n3)c(N3CCCCC3)cc2n1 [Example 33, 2,2,2-trifluoroacetate] .
Ans: 7.00 to 7.30

Q: Now consider COCCn1cc2cc(NC(=O)c3coc(-c4ccnc(C)c4)n3)c(N3CCC(N)CC3)cc2n1 [Example 118, hydrochloride] .
Ans: > 7.30

Q: Now consider COCC(=O)OC1CCN(c2cc3c(cc2NC(=O)c2coc(-c4ccnc(C)c4)n2)c(C)nn3C)CC1 [Example 106] .
Ans: > 7.30

Q: Now consider Cn1cc2cc(NC(=O)c3cccc(N4CC[C@@H](N)C4)n3)c(N3CCCCC3)cc2n1 [Example 42] .
Ans: 7.00 to 7.30

Provenance of the data: patent US10160753B2
